For each entry below, report its GI50 value.
System: HS 578T breast
ASSAY_NAME: NCI tumour cell line growth inhibition, 48 h

>>> observed_measurement("Cc1[nH]c(-c2nc3ccccc3[nH]2)c(C)c1C(=O)NC(C)C1CCCCC1 (stereo not given)")
"8.88 µM"
>>> observed_measurement("CCCCNC(=O)c1cc(NCc2cc(O)ccc2O)ccc1O")
"24.8 µM"
>>> observed_measurement("CCCCC(=O)N/N=C/c1c(O)ccc2ccccc12")
"6.54 µM"
>>> observed_measurement("COc1ccc(/C=C2\\CN(Cc3cn(CCNc4ccnc5cc(Cl)ccc45)nn3)C/C(=C\\c3ccc(OC)c(OC)c3)C2=O)cc1OC")
"6.49 µM"
>>> observed_measurement("C[C@]12CC[C@H]3[C@@H](C[C@@H]4SC(Nc5ccccc5)=N[C@@]45CC(O)CC[C@]35C)[C@@H]1CCC2O (stereo not given in full)")
"2.16 µM"
>>> observed_measurement("Cc1cc2nc3cc(C)c(N)cc3[n+](-c3ccccc3)c2cc1N")
"10.6 µM"

For each listed entry, give its GI50.
1. Nc1nc(N)c2c(n1)NC(c1ccccc1)C1CCc3ccccc3C1=N2 (stereo not given)
2. COC(=O)/C=C1/SC(N2N=C(c3cccs3)CC2c2ccc(F)cc2)=NC1=O (stereo not given)
3. COc1cc(-c2cc(/C=C/C(=O)c3ccc(Cl)c(Cl)c3)[nH]n2)cc(OC)c1OC
4. CCN(CC)CCN(Cc1ccc(F)cc1)c1ccc(CO)c(Cl)c1

// result
1: 5.85 µM; 2: 4.46 µM; 3: 16.6 µM; 4: 48.3 µM

---

For each entry below, report its TGI value.
Tested on: UO-31 renal
ASSAY_NAME: NCI tumour cell line growth inhibition, 48 h

>>> observed_measurement("O=C(N/N=C/c1ccccc1O)c1ccccc1Nc1ccccc1C(=O)N/N=C/c1ccccc1O")
"> 100 µM"
>>> observed_measurement("Nc1c(N2CCOCC2)c(=O)nc2[nH]/c(=C\\c3ccccc3)c(=O)n12")
"> 100 µM"
>>> observed_measurement("CCOC(=O)[C@H]1Nc2ccc([N+](=O)[O-])cc2C2c3ccccc3CC21 (some centres undefined)")
"44 µM"
>>> observed_measurement("C=C(C)C(O)C(O)C[C@@H](C)C1CC[C@]23C[C@]12CCC1[C@@]2(C)CCC(OC(C)=O)C(C)(C)C2CC(OC2OC(CO)C(O)C(O)C2O)[C@]13C (some centres undefined)")
"> 100 µM"

For each listed entry, give its TGI.
1. CC(C)(C)OC(=O)C1=C2C=C(O)C=CC2(C)N(Cc2ccccc2)C1=N (centres undefined)
2. C[C@@H]1C2=CC[C@@]3(C)C(CCC3[C@H](C)[C@H]3C[C@@]4(C)O[C@@](c5cccnc5)(O3)OC4(C)C)[C@@H]2C2OC2[C@@]12CCC(=O)O2 (some centres undefined)
3. CC(C)C(C/C=C1/CC(CO)(COC(=O)c2ccccc2)OC1=O)C(C)C (centres undefined)
4. CSc1nc(NC2OC(COC(C)=O)C(OC(C)=O)C(OC(C)=O)C2OC(C)=O)c(-c2csc(N)n2)c(=O)n1C (centres undefined)
5. Cc1[nH]c(-c2nc3ccccc3[nH]2)c(C)c1C(=O)NC(C)C1CCCCC1 (centres undefined)
6. CC(=O)ON1C(=O)c2cccc3cccc(c23)C1=O

// result
["10.7 µM", "97.1 µM", "31.5 µM", "> 100 µM", "25.6 µM", "> 100 µM"]

For each listed entry, give its TGI.
1. Cc1ccc(C2=C(c3ccc(C)cc3)C3(c4ccc(C)cc4)C4C(=O)c5ccccc5C(=O)C4C2(c2ccc(C)cc2)S3=O)cc1 (centres undefined)
2. COC(=O)[C@]1(c2cc3ccccc3[nH]2)CC2CN(CC(=O)N(C)OC)C1CC2(OC)OC (some centres undefined)
3. O=C(O)CNn1c(SCC(=O)O)nnc(/C=C/c2c(O)ccc3ccccc23)c1=O
4. COC(=O)N/N=C(/CCC(=O)Nc1ccc(C)c(C)c1)CC(=O)C(C)(C)C
5. CCCCNC(=O)c1cc(NCc2cc(O)ccc2O)ccc1O
6. COc1cc2c(cc1OC)NC(=O)NC(Cc1ccc3c(c1)OCO3)CC2 (centres undefined)
7. CCOC(=O)c1c(C)nc2c(c1N)CC(=O)N2CCc1ccccc1
8. C/C=C/[C@H]1O[C@@H]2C(=C[C@H]1O)C(=O)O[C@H]2C

// result
["> 100 µM", "> 100 µM", "> 100 µM", "> 100 µM", "12.1 µM", "> 100 µM", "21.9 µM", "> 54.4 µM"]

// query Any idea what TGI came out for `CCOc1ccc(N=NS(=O)(=O)O)cc1` on UO-31 renal?
// result > 100 µM

---

Tested on: HOP-18 NSCLC
ASSAY_NAME: NCI tumour cell line growth inhibition, 48 h
For each entry below, report its TGI value.

Please review the following examples before continuing.
>>> observed_measurement("NCCCCC(=O)c1cccnc1")
"> 100 µM"
>>> observed_measurement("COc1ccc(-c2cc(-c3cc(Cl)cc(Br)c3O)[nH]c(=O)n2)cc1")
"55.7 µM"

For each listed entry, give its TGI.
1. C#CC1(O)c2ccccc2C(=O)c2ccccc21
2. O=[N+]([O-])c1ccccc1C=NC12CC3CC(CC(C3)C1)C2
3. CC(CNCCCNCCNCCCNCO)[N+](=O)[O-] (stereo unspecified)
4. CCN(CC)C(=O)N1CCN(C=S)CC1

// result
> 100 µM
> 100 µM
28.3 µM
> 100 µM

---

Test system: SF-539 CNS
ASSAY_NAME: NCI tumour cell line growth inhibition, 48 h; in the data active = GI50 below about 0.43 µM; inactive = the rest
Assign a class; possible classes are active, inactive

Answered cases to consult:
>>> classification("CCCCc1n(Cc2ccc3ccccc3c2)cc[n+]1Cc1ccc2ccccc2c1")
"inactive"
>>> classification("N=C(N)c1ccc(-c2ccc(-c3cccs3)s2)s1")
"inactive"
>>> classification("C[C@]1(Cn2ccnn2)C(C(=O)O)N2C(=O)CC2S1(=O)=O (stereo partly specified)")
"inactive"
>>> classification("COC(=O)/C=C1/SC(N2N=C(c3cccs3)CC2c2ccc(F)cc2)=NC1=O (stereo unspecified)")
"inactive"
>>> classification("C/C(=N\\NC(=S)N1CC2CCC(CC2)C1)c1cccc(C)n1")
"inactive"
>>> classification("COc1cc(-c2n/c(=C\\c3c(O)[nH]c4cc(Cl)ccc34)cc3c2=Nc2ccccc2-3)cc(OC)c1OC")
"inactive"
>>> classification("C=C(CC(=O)O)C(=O)O (tested in a mixture with another compound)")
"inactive"
>>> classification("COc1ccc2c(Cl)cc(NC(=O)Nc3c(C)cccc3C)nc2c1")
"inactive"
>>> classification("COc1cc(C2C3=C(COC3=O)Nc3c2ccc2c3CCCC2)cc2c1OCO2 (stereo unspecified)")
"active"
>>> classification("Cn1c2ccccc2c2c3[nH][nH]c(=O)c3c3c4ccccc4[nH]c3c21")
"inactive"

We now examine a further molecule.
// query Record lookup: outcome of this test for `c1cncc(C2Nc3cccc4cccc(c34)N2)c1` ?
// result inactive

---

For each entry below, report its GI50 value.
Tested on: UACC-257 melanoma
ASSAY_NAME: NCI tumour cell line growth inhibition, 48 h

Please review the following examples before continuing.
>>> observed_measurement("COc1cc(-c2cc(/C=C/C(=O)c3ccc(Cl)c(Cl)c3)[nH]n2)cc(OC)c1OC")
"16.3 µM"
>>> observed_measurement("CCN(CC)CCN(Cc1ccc(F)cc1)c1ccc(CO)c(Cl)c1")
"12 µM"
>>> observed_measurement("CCCNC(=O)c1ccc(Cl)cc1Cl")
"> 100 µM"
>>> observed_measurement("CN1CCN(Cc2ccc(NC(=O)c3cncc(C#Cc4cncc5nccnc45)c3)cc2C(F)(F)F)CC1")
"1.48 µM"

Now let's try a different one.
// query Quick one: GI50 of `NCCOc1ccccc1/C=C1\c2ccccc2-c2ccc([N+](=O)[O-])cc21` ?
// result 1.7 µM

---

For each entry below, report its TGI value.
Tested on: NCI-H460 lung
ASSAY_NAME: NCI tumour cell line growth inhibition, 48 h

Please review the following examples before continuing.
>>> observed_measurement("O/N=C(\\CC(O)(C(F)(F)F)C(F)(F)F)c1cccc(Cl)c1")
"> 100 µM"
>>> observed_measurement("Cc1[nH]c(-c2nc3ccccc3[nH]2)c(C)c1C(=O)NC(C)C1CCCCC1 (stereo unspecified)")
"32 µM"
>>> observed_measurement("COc1cc(S(=O)(=O)Nc2ccc(-c3csc(N4C(=O)C(Cl)C4c4ccccc4)n3)cc2)ccc1Cl (stereo unspecified)")
"> 100 µM"
>>> observed_measurement("COc1ccc(N=Nc2c(C)c(C#N)c(=S)n(C3OC(CO)C(O)C(O)C3O)c2C)cc1 (stereo unspecified)")
"> 100 µM"
>>> observed_measurement("Cc1ccc(C2=C(c3ccc(C)cc3)C3(c4ccc(C)cc4)C4C(=O)c5ccccc5C(=O)C4C2(c2ccc(C)cc2)S3=O)cc1 (stereo unspecified)")
"> 100 µM"

For each listed entry, give its TGI.
1. CC1(C)C2CC3C4CC5(Nc6ccccc6C5N41)[C@]3(C)CC2=O (stereo partly specified)
2. N#Cc1c(O)cc(=O)n2c1[nH]c1ccccc12
3. O=c1c(NO)c([N+](=O)[O-])cnn1-c1ccccc1
4. Oc1cccc2cc(Br)cnc12
5. O=C(O)C1(Cc2ccc3c(c2)CCC3)Cc2ccccc2C1

// result
1: > 50 µM; 2: > 100 µM; 3: 13.1 µM; 4: > 70.8 µM; 5: > 100 µM

These entries and their values trace back to PubChem BioAssay (NCI).
